FYI, the data here is from patent US20220267469A1.

Target: T1, Human BSSL (bile salt-stimulated lipase), native (human, UniProt P19835 21-753)
T1 construct: Native full-length protein purified from human milk (Astra Hässle AB); also called hBSSL; non-biotinylated human BSSL
T1 sequence: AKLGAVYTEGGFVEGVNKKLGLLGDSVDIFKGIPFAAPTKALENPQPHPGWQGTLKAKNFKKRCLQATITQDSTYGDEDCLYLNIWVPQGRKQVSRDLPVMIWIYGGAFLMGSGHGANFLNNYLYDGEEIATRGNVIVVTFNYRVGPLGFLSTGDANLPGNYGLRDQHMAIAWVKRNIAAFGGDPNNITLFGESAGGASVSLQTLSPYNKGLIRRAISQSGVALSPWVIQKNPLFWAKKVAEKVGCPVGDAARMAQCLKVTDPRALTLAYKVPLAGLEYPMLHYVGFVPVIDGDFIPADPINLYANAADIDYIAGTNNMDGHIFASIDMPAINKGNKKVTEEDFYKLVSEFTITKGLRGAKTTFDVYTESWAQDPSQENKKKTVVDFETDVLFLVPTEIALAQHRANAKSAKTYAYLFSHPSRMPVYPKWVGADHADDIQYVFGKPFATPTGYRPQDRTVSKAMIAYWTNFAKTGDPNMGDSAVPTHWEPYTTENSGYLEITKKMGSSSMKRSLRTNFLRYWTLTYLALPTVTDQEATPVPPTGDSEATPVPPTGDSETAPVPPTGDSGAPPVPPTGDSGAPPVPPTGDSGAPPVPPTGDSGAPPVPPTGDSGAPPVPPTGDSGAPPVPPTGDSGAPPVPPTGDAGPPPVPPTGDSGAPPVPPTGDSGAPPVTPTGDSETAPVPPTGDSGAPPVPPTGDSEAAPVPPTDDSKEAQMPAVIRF
Assay: SPR single cycle kinetics, hIgG4 S228P captured by anti-Fab
Assign pKd to each entry below.
// pKd: -log10(molar conc.)

Q. I have this binder here, S-SL048-48 hIgG4 S228P (antibody, V domains shown, Tested as human IgG4 S228P) VH: QVQLVQSGAEVKKPGASVKVSCKASGYTFTSYNMHWVRQAPGQGLEWIGVINPGDGATSYAQKFQGRVTMTRDTSTSTVYMELSSLRSEDTAVYYCARDYYGSSPLGYWGQGTLVTVSS VL: DIQMTQSPSSLSASVGDRVTITCRASPSISYMNWYQQKPGKAPKLLIYATSRLQSGVPSRFSGSGSGTDFTLTISSLQPEDFATYYCHQRSSSPTFGQGTKLEIK , and I need its recorded pKd.
A. 9.10

Q. I have this binder here, S-SL048-110 hIgG4 S228P (antibody, V domains shown, Tested as human IgG4 S228P) VH: QVQLVQSGAEVKKPGASVKVSCKASGYTFTSYNMHWVRQAPGQGLEWMGVINPGDGATSYNQKFKGRVTMTRDTSTSTVYMELSSLRSEDTAVYYCARDYYGSSPLGYWGQGTLVTVSS VL: DIQMTQSPSSLSASVGDRVTITCSASQSISYLHWYQQKPGKAPKLLIYAASRLASGVPSRFSGSGSGTDFTLTISSLQPEDFATYYCHQRSSTPTFGQGTKLEIK , and I need its recorded pKd.
A. 8.23
